Let's go through some Ki measurements on Sodium- and chloride-dependent GABA transporter 1 (Homo sapiens, UniProt P30531) together.
Sequence (P30531 whole entry): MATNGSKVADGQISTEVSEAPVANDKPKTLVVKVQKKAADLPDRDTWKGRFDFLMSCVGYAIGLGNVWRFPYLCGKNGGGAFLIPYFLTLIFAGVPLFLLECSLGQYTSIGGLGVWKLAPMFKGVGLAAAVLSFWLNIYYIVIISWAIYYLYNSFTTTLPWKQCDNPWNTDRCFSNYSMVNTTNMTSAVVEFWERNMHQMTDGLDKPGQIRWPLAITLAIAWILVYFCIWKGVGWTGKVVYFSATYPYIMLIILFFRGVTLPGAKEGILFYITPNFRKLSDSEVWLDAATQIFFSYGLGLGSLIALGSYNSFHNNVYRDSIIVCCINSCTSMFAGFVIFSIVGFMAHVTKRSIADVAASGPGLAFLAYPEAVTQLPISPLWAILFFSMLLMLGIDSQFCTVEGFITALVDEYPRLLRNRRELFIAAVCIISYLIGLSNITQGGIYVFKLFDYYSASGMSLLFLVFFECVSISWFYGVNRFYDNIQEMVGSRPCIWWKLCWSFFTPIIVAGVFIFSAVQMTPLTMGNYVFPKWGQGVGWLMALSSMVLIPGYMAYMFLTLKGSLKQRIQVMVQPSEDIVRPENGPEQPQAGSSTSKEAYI
Express the result in µM but write the number alone.

Guide cases for Ki, answers given:
Given the compound Cc1ccsc1C(=CCCN1CCC[C@@H]1[C@@H](N)C(=O)O)c1sccc1C (racemic) and test system Sodium- and chloride-dependent GABA transporter 1 (Homo sapiens, UniProt P30531), the measured Ki is 20.4

Given the compound O=C(O)[C@@H](O)[C@H]1CCCN1CCC=C(c1ccccc1)c1ccccc1 (racemic) and test system Sodium- and chloride-dependent GABA transporter 1 (Homo sapiens, UniProt P30531), the measured Ki is 0.214

Given the compound Cc1ccsc1C(=CCCN1CCC[C@@H]1[C@H](N)C(=O)O)c1sccc1C (racemic) and test system Sodium- and chloride-dependent GABA transporter 1 (Homo sapiens, UniProt P30531), the measured Ki is 19.1

Next item in the queue.
Given the compound O=C(O)[C@H](O)[C@H]1CCCN1CCC=C(c1ccccc1)c1ccccc1 (racemic) and test system Sodium- and chloride-dependent GABA transporter 1 (Homo sapiens, UniProt P30531), the measured Ki is 3.98

* * *

- target or system: UniProt:P31651
- Sequence (whole entry): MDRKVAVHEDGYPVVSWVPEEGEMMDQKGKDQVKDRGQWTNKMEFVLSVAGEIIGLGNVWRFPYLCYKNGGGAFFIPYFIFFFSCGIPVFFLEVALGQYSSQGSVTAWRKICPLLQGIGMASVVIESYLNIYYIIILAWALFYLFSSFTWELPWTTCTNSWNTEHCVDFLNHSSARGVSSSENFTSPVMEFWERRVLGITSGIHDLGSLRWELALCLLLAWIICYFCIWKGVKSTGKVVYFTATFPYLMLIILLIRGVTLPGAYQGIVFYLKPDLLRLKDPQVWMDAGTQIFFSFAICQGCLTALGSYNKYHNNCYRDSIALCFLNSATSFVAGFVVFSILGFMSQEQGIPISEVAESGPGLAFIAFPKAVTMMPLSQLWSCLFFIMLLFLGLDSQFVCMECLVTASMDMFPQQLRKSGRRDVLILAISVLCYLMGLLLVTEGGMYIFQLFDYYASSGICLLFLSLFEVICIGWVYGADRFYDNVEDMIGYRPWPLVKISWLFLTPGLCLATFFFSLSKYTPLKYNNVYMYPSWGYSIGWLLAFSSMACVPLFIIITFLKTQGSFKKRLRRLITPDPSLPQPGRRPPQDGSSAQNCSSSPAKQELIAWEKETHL
- test description: Inhibition of mouse GAT2 expressed in HEK293 cells assessed as remaining [3H]GABA uptake at 100 uM by [3H]GABA uptake assay
- Assay type: cell-based
# binarize Activity: threshold 60% inclusive, high side yes (1), low side no (0)

Check out these entries, answers already filled in.
Could you verify whether the entry N[C@@H](C(=O)O)[C@H]1CCCN1CCC=C(c1ccccc1)c1ccccc1 (racemic) shows Activity of no less than 60%?
yes (1)

Could you verify whether the entry Cc1ccsc1C(=CCCN1CCC[C@@H]1[C@H](O)C(=O)O)c1sccc1C (racemic) shows Activity of no less than 60%?
no (0)

Could you verify whether the entry COc1ccc(C(OCCN2CCC[C@@H]2[C@H](O)C(=O)O)(c2ccc(OC)cc2)c2ccc(OC)cc2)cc1 (racemic) shows Activity of no less than 60%?
yes (1)

Could you verify whether the entry O=C(O)[C@H](O)[C@H]1CCCN1CCC=C(c1ccccc1)c1ccccc1 (racemic) shows Activity of no less than 60%?
yes (1)

Could you verify whether the entry COc1ccc(C(OCCN2CCC[C@@H]2[C@@H](O)C(=O)O)(c2ccc(OC)cc2)c2ccc(OC)cc2)cc1 (racemic) shows Activity of no less than 60%?
no (0)

Attention now shifts to the item below.
Could you verify whether the entry Cc1ccsc1C(=CCCN1CCC[C@@H]1[C@@H](O)C(=O)O)c1sccc1C (racemic) shows Activity of no less than 60%?
yes (1)

* * *

- target or system: GABA transporter 4 (Mus musculus) (UniProt P31650)
- test description: Inhibition of mouse GAT4 expressed in HEK293 cells assessed as remaining [3H]GABA uptake at 1 mM by [3H]GABA uptake assay
- Type: cell-based
# reported Activity; entries follow
Answer format reminder: number followed by unit.

Input O=C(O)C1([C@H]2CCCN2)CCC1 (racemic) . Output Activity: 110%

Input CCC(C(=O)O)[C@H]1CCCN1 (mixture of isomers) . Output Activity: 95%

Input O=C(O)[C@@H](O)[C@H]1CCCN1 (racemic) . Output Activity: 61%

***
Input CC(C)(C(=O)O)[C@H]1CCCN1 (racemic) . Output Activity: 95%

* * *

# reported Activity; entries follow
- target or system: GABA transporter 3 (Mus musculus)
- Sequence (whole entry): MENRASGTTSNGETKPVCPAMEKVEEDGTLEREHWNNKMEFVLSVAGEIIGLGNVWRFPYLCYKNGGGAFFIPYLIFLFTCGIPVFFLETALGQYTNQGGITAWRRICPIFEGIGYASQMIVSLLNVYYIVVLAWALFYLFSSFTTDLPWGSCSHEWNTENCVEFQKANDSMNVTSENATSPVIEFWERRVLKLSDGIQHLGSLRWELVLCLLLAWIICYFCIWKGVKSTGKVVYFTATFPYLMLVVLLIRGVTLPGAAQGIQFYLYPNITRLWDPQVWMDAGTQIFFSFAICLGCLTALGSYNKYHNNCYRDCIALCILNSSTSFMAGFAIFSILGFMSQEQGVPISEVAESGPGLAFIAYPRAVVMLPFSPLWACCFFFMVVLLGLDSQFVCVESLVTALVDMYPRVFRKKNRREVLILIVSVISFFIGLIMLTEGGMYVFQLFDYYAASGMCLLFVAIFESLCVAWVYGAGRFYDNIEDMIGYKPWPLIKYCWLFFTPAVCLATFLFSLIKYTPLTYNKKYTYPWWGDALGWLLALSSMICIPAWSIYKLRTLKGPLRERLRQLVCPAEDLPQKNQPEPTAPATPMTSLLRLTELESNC
- test description: Inhibition of mouse GAT3 expressed in HEK293 cells assessed as remaining [3H]GABA uptake at 1 mM by [3H]GABA uptake assay
- Type: cell-based
Express the result in % but write the number alone.

Guide cases for Activity, answers given:
Input O=C(O)C1([C@H]2CCCN2)CCC1 (racemic) . Output Activity: 73

Input CCC(C(=O)O)[C@H]1CCCN1 (mixture of isomers) . Output Activity: 78

***
Input CC(C)(C(=O)O)[C@H]1CCCN1 (racemic) . Output Activity: 93

Input N[C@H](C(=O)O)[C@H]1CCCN1 (racemic) . Output Activity: 59

* * *

- target or system: GABA transporter 4 (Mus musculus) (UniProt P31650)
- Sequence (whole entry): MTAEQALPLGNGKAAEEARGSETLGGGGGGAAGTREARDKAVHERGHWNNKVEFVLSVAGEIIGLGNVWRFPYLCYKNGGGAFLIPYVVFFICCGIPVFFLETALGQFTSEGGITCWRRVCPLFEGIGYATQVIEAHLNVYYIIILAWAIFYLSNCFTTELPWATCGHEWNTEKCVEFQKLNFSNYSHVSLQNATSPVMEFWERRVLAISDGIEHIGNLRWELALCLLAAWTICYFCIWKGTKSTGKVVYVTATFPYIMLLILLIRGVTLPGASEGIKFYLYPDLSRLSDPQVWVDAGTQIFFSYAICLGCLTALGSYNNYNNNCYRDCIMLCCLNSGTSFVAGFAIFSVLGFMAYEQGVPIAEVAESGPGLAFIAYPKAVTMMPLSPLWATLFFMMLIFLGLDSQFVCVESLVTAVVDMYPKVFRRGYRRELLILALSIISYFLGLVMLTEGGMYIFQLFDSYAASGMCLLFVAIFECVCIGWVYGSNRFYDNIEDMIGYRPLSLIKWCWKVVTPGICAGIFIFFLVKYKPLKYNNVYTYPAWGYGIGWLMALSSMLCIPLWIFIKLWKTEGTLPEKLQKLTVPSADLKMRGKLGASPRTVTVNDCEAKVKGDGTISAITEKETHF
- test description: Inhibition of mouse GAT4 expressed in HEK293 cells assessed as remaining [3H]GABA uptake at 100 uM by [3H]GABA uptake assay
- Type: cell-based
# reported Activity; entries follow
Express the result in % but write the number alone.

Guide cases for Activity, answers given:
Given the molecule N[C@H](C(=O)O)[C@H]1CCCN1CCC=C(c1ccccc1)c1ccccc1 (racemic) and test system GABA transporter 4 (Mus musculus) (UniProt P31650), the measured Activity is 83

Given the molecule Cc1ccsc1C(=CCCN1CCC[C@@H]1[C@@H](O)C(=O)O)c1sccc1C (racemic) and test system GABA transporter 4 (Mus musculus) (UniProt P31650), the measured Activity is 74

Given the molecule O=C(O)[C@@H](O)[C@H]1CCCN1CCC=C(c1ccccc1)c1ccccc1 (racemic) and test system GABA transporter 4 (Mus musculus) (UniProt P31650), the measured Activity is 55

Given the molecule O=C(O)[C@H](O)[C@H]1CCCN1CCC=C(c1ccccc1)c1ccccc1 (racemic) and test system GABA transporter 4 (Mus musculus) (UniProt P31650), the measured Activity is 59

Next item in the queue.
Given the molecule Cc1ccsc1C(=CCCN1CCC[C@@H]1[C@H](O)C(=O)O)c1sccc1C (racemic) and test system GABA transporter 4 (Mus musculus) (UniProt P31650), the measured Activity is 59
